# protocol: CPHEA_Stoker_NIS_Cytotoxicity: Cytotoxicity Assessment for CPHEA's Radioactive Iodide Uptake (RAIU) Assay for Sodium/Iodide Symporter (NIS) Inhibition, Stoker and Laws Labs (AID 2283897)
Active and inactive are the calls of the source. The calls were made as follows: active = hit-call score of the fitted dose curve at least 0.9, where 1 is the maximum; inconclusive = response in the unintended direction; inactive = score below 0.9.
Field 'call' accepts TRUE = active, FALSE = inactive

compound: C#CCOS(=O)OC1CCCCC1Oc1ccc(C(C)(C)C)cc1 (stereo not drawn)
assigned label: FALSE
--
compound: Fc1ccc(Oc2ccnc3cc(Cl)cc(Cl)c23)cc1
assigned label: FALSE
--
compound: N#CC(CCc1ccc(Cl)cc1)(Cn1cncn1)c1ccccc1 (stereo not drawn)
assigned label: TRUE

Asked: Returns: the outcome recorded for `CCOP(=S)(OCC)SCn1c(=O)oc2cc(Cl)ccc21` in this assay.
Given back: FALSE

Asked: Check the results log: what was the call for `CCCCOC(=O)c1ccccc1C(=O)OCCCC` ?
Given back: FALSE

Asked: # outcome recorded in this test, key = `CCCN(CCC)c1c([N+](=O)[O-])cc(S(N)(=O)=O)cc1[N+](=O)[O-]`
Given back: FALSE

Asked: Test call for this compound, please: `C=CCC1=C(C)[C@@H](OC(=O)[C@@H]2[C@@H](C=C(C)C)C2(C)C)CC1=O`
Given back: FALSE

Asked: What was the test verdict on CCCC1COC(Cn2cncn2)(c2ccc(Cl)cc2Cl)O1 (stereo not drawn) ?
Given back: FALSE
